# measured-on: T1, human IL-18BP (human, UniProt O95998 31-194)
# T1 construct: UniProt printed as 095998; also called hIL-18BP
# T1 sequence: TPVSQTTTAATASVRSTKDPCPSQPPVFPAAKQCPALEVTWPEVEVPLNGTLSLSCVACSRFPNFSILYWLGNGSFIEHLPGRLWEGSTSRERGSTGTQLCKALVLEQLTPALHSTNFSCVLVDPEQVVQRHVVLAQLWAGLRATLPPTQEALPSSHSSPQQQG
# assay-summary: BLI, apparent KD
pKd: −log10 of the molar value.
# pKd >= 9 gives 1 (yes), anything below gives 0 (no)

SA302a HC-Y33aD (antibody, V domains shown) VH: QVQLQESGPGLVKPSQTLSLTCTVSGYSITSDDNAHWIRQPPGKGLEWIGYIHYSGSTNYNPSLKSRVTISRDTSKNQFSLKLSSVTAADTAVYYCARNYGSIYVNYFDYWGQGTLVTVSS VL: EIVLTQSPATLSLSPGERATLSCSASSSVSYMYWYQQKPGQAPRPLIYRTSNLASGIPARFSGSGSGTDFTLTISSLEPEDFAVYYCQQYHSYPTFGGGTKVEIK | 0 (no)
SA302a HC-H35K (antibody, V domains shown, IgG1 kappa) VH: QVQLQESGPGLVKPSQTLSLTCTVSGYSITSDYNAKWIRQPPGKGLEWIGYIHYSGSTNYNPSLKSRVTISRDTSKNQFSLKLSSVTAADTAVYYCARNYGSIYVNYFDYWGQGTLVTVSS VL: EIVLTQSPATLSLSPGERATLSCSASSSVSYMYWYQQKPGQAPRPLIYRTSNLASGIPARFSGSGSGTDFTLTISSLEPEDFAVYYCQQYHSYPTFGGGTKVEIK | 1 (yes)
SA302a HC-Y33aL (antibody, V domains shown) VH: QVQLQESGPGLVKPSQTLSLTCTVSGYSITSDLNAHWIRQPPGKGLEWIGYIHYSGSTNYNPSLKSRVTISRDTSKNQFSLKLSSVTAADTAVYYCARNYGSIYVNYFDYWGQGTLVTVSS VL: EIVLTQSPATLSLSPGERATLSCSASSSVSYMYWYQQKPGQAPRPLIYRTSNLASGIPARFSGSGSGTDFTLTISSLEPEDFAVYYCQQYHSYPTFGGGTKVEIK | 0 (no)
